Several publications report pIC50 on Interstitial collagenase (Homo sapiens, UniProt P03956); those values are gathered here.
API: returns pIC50 as number; meaning -log10 of concentration in mol/L.

Take a look at these entries with their results.
{"Molecule": "CC#CCSc1ccc(S(=O)(=O)N(C)CC(=O)NO)cc1", "Value": 5.31}
{"Molecule": "CC(C)[C@@H](NS(=O)(=O)c1ccccc1)C(=O)NC1=NN=C(c2ccc(Cl)cc2)CS1", "Value": 6.20}
{"Molecule": "O=C(NO)C1c2[nH]c3ccccc3c2CCN1S(=O)(=O)c1ccc(-c2ccccc2)cc1 (racemic)", "Value": 5.52}

IN: # get_value(readout= pIC50, system= Interstitial collagenase (Homo sapiens, UniProt P03956)) for CC#CCOc1ccc(S(=O)(=O)N2CCSC(C)(C)C2C(=O)NO)cc1 (centres unmarked)
OUT: 8.18

IN: Record lookup: for Interstitial collagenase (Homo sapiens, UniProt P03956), what pIC50 belongs to COc1ccc(Oc2ccc(S(=O)(=O)N3CCc4c([nH]c5ccccc45)C3C(=O)NO)cc2)cc1 (racemic) ?
OUT: 6.46
